- Tested On: hNET (Homo sapiens)
- Construct: expressed in transfected cells; host or cells: MDCK-Net6 (MDCK cells stably transfected with hNET)
- Sequence (P23975 whole entry): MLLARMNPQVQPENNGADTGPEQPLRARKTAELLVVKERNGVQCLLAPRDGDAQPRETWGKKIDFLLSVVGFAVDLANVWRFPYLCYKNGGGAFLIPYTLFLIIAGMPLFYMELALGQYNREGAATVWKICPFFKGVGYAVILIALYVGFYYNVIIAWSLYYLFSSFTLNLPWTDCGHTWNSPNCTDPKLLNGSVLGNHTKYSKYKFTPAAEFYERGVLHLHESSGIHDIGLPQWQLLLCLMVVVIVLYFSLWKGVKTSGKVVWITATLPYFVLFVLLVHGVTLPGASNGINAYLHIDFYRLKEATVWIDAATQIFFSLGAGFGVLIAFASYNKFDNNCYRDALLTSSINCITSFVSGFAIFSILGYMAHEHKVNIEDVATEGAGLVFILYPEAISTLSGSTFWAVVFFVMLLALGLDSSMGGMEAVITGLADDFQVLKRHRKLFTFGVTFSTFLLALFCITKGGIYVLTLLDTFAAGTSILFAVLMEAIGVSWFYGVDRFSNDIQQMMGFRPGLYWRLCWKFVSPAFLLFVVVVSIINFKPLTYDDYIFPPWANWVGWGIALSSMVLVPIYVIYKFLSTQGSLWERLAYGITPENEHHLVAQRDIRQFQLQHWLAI
- Assay Overview: Norepinephrine (NE) uptake assay in MDCK-Net6 cells
- Format: cell-based
- Particulars: 1 μM test compound; [3H]NE uptake, MDCK-Net6 cells stably transfected with human hNET
Counter-ions that a name gives are not always drawn.
inhibition at 1 µM for assorted compounds

Compound	inhibition at 1 µM
OC1(C(CN2CCN(Cc3ccnc4ccccc34)CC2)c2cccc(Cl)c2)CCCCC1 (stereo not shown) [Example 127, dihydrochloride]	86%
OC1(C(CN2CCN(Cc3cccnc3)CC2)c2cccc(Cl)c2)CCCCC1 (stereo not shown) [Example 134, dihydrochloride]	69%
OC1(C(CN2CCN(Cc3ccoc3)CC2)c2cccc(Cl)c2)CCCCC1 (stereo not shown) [Example 125, dihydrochloride]	93%

Inquiry: I would be grateful if you could share the reported inhibition at 1 µM for CC(CN1CCN(CC(c2cccc(Cl)c2)C2(O)CCCCC2)CC1)c1ccccc1 (stereo not shown) [Example 129, dihydrochloride] .
Reply text: 81%
